Origin of measurements: the supplement of paper PMC9170038

- Tested on: MS2 coat protein
- Test Protocol: apparent KD of MS2 coat protein; designed switch direction (-1 OFF switch, 1 ON switch): -1; higher = weaker reporter binding
- Assay Context: input ligand: microRNA oligo, concentration not stated
Everything with apparent KD of MS2 coat protein lower than 0.02 µM is Criterion not met; everything else, including exactly 0.02 µM, is Criterion met.

Illustrative cases are given below, each with its answer.
{"columns": ["Sequence", "Study Target", "Category"],
 "data": [
  ["AGUACAUGAGGAUCACCCAUGUCAGUUAUCAAUGGCACGCCUAAGGAUAUUGAGCGUCAAAGGCUCAAGAAGGUAGCUUUAUGC [Eternabot solution 12] (Eterna round: R96, puzzle: Exclusion NG 3)", "MS2 coat protein", "Criterion not met"],
  ["AGCUGUGGCCGAGGAUAUCACAUGAGGAUCACCCAUGUACAUGAUUAGGCCUGGUAACAGGCUCGUGAGAAGGCGGUCUCAGCA [Eli eng2 - 010] (Eterna round: R96, puzzle: Exclusion NG 2)", "MS2 coat protein", "Criterion met"],
  ["AGCUGUGGCCGAGGAUAUCUGUCCCAUAAAACCGAAAUAUAAUCGGACAUGAGGAUCACCCAUGUAGAGAAGGCGGUCUCAGCA [Eli eng2 - 098] (Eterna round: R96, puzzle: Exclusion NG 2)", "MS2 coat protein", "Criterion met"],
  ["UAUAUAUAGUAAGGAUAUGUAAUUAUUUGAUAAACAGAAGGUACUGACAUGAGGAUCACCCAUGUUUUAGUGUGGGCAUGUAGA [JMF's solution 42] (Eterna round: R96, puzzle: Exclusion NG 1)", "MS2 coat protein", "Criterion met"]
]}

apparent KD of MS2 coat protein >= 0.02 µM for UACAUGAGGAUCACCCAUGUUUUGUCGUGUAUGGUAUUUAUCUAGGAUAUCAAUCUAUUUAUGUAUGAGAAGGAGAAUAUUAAU [JMF's solution 55] (Eterna round: R96, puzzle: Exclusion NG 3) ? Criterion met

// same read-out, input: AGAUAGUGGUGAGGAUAUGAGAAUAGAAAGAAAUCAGAAGGCACACAUGAGGAUCACCCAUGUGAGUUCUUGAGAUUACAUGGU [Prohibition 42 - Jieux - Exclusion NG 1] (Eterna round: R96, puzzle: Exclusion NG 1) Criterion not met

// same read-out, input: AUACACUAACGAGGAUAUUGGAAAGGAAGUGUACAAGAAGGCGUCCGUGGAAGGGUGAAACAUGAGGAUCACCCAUGUGAAUAA [Exclusion NG 1] (Eterna round: R96, puzzle: Exclusion NG 1) Criterion met

// same read-out, input: CUAGCGGAUGUAGGAUAUCGGACUGUUUCAGUCUGAGAAGGACAUGAGGAUCACCCAUGUAUAGCUGCGUGAGUAGCUCGCUAG [JL ENG1 3.96] (Eterna round: R96, puzzle: Exclusion NG 1) Criterion not met

// same read-out, input: AGUACUAUCGCGAAAGCGAUAGUACAAAAAGCAAGUGAAACAUGAGGAUCACCCAUGUCCUCAUUUGCUCGUCUUAU [Mat - Sensor v2 -ver2- JL mod - D89] (Eterna round: R96, puzzle: Sensor v2, turn-off variant 2) Criterion met

----------
- System: K4 kissing-loop RNA reporter;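 note: bound reporter read as fluorescence of individual clusters on recovered sequencing chips by microscopy, with normalized cluster intensities fitted with a binding model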
- Test Protocol: apparent KD of K4 kissing-loop reporter; higher = weaker reporter binding
- Assay Context: Eterna round: R107; input ligand: tryptophan 2.4 mM
apparent KD of K4 kissing-loop reporter reference
Hi! Could you send only the number? It should be in nM, unit omitted.

{"columns": ["Sequence", "apparent KD of K4 kissing-loop reporter (nM)"],
 "data": [
  ["GGGAGUAGUGCGGCCGCCACUGUGAAAGUAGAAGAAUAUAGUGAUGUUAUAUAGGAAUAAAAGAAUAGGACCGGGCAUUAGAUUU [SSTRyptB.V]", 168]
]}

For the sequence shown here, CCGGCCCGGCCGGAUACCAGUGCGCCGCUGGGAACCGCGGGCCCAGAGUGAUGUUCGGGACACCCUUGGCAGCCGCCUGGGUCGC [#2 Same State - Theophylline B Attempt #24 (HarryS)] , give the reported apparent KD of K4 kissing-loop reporter. 240

// same read-out, input: AUUUUUUACAGAAGGAGCGUGUUUUAAUAAUCAUGGUGCUUAGCGAGUGAUGUUCGCUUUACACAGGUAGGUCGCUGUUUAUUUA [JR_Nu_ExcArginiB_Sub030] 112
